Ref: patent US20040121946A9

Tested on: HLA-DR molecules (DR1, DR4w4, DR7, DRB5*0101, DRB1*1501, DRB1*1101, DRB1*0802, DRB1*1302)
Test: DR supertype cross-reactive binding
Design: species or system human
Details: number of DR1, DR4w4, DR7 bound, Table XXVIII
MEASURED_METRIC: DR147 Cross-binding

Please indicate recorded DR147 Cross-binding of CSCC[C@H](NC(=O)[C@H](CC(C)C)NC(=O)[C@H](CCC(=O)O)NC(=O)[C@H](Cc1c[nH]c2ccccc12)NC(=O)[C@@H](NC(=O)[C@@H](NC(=O)[C@@H](NC(=O)CN)C(C)C)[C@@H](C)O)C(C)C)C(=O)N[C@H](C(=O)N[C@@H](Cc1ccccc1)C(=O)NCC(=O)N[C@@H](C)C(=O)N[C@@H](CCCCN)C(=O)N1CCC[C@H]1C(=O)N[C@@H](Cc1ccc(O)cc1)C(=O)O)[C@@H](C)O measured with HLA-DR molecules (DR1, DR4w4, DR7, DRB5*0101, DRB1*1501, DRB1*1101, DRB1*0802, DRB1*1302).
1

Please indicate recorded DR147 Cross-binding of CC[C@H](C)[C@H](NC(=O)[C@@H]1CCCN1)C(=O)N[C@@H](CCCCN)C(=O)N[C@@H](Cc1c[nH]c2ccccc12)C(=O)N[C@@H](CCSC)C(=O)N[C@@H](C)C(=O)N[C@@H](CC(C)C)C(=O)N[C@@H](CCC(=O)O)C(=O)N[C@@H](CO)C(=O)N[C@H](C(=O)N[C@@H](CC(C)C)C(=O)N[C@@H](CCCNC(=N)N)C(=O)N[C@@H](CCCNC(=N)N)C(=O)N[C@@H](CCCNC(=N)N)C(=O)N[C@@H](Cc1ccccc1)C(=O)O)[C@@H](C)CC measured with HLA-DR molecules (DR1, DR4w4, DR7, DRB5*0101, DRB1*1501, DRB1*1101, DRB1*0802, DRB1*1302).
1

---

Molecular target: DRB1*0301 (DR3) (Homo sapiens, UniProt P01903+P01911, A100K/A102G/A103R/A169T/F55Y/I96L/K41T/L162R/M171V/P40S/Q125H/Q178H/Q39Y/R42S/S66N/T106N/T262R/W38E/Y61H)
Assay: HLA class II peptide binding assay, purified HLA
Conditions: Table XIX, DR supermotif peptides; unit not given
# DR3 binding data listing for each entry below
Just the number, please.

Annotate the sequence ELELRKVKVLGSGAF with its measured DR3 binding data.
0.0045

---

System: B7-supertype molecules (B*0702, B*3501, B*5101, B*5301, B*5401)
Test: B7-supertype cross-reactive binding
Set-up: species or system human
Conditions: of five B7-supertype alleles tested
MEASURED_METRIC: No. of B7 Alleles Crossbound
Output spec: single numeric token, no unit.

The examples below pair each entry with its known result.
CC[C@H](C)[C@H](NC(=O)[C@@H](NC(=O)[C@H](CO)NC(=O)[C@H](CC(=O)O)NC(=O)[C@H](CC(C)C)NC(=O)[C@@H]1CCCN1C(=O)[C@H](CO)NC(=O)[C@H](C)NC(=O)[C@@H]1CCCN1C(=O)[C@@H](N)Cc1ccccc1)[C@@H](C)O)C(=O)O ... 5
CC[C@H](C)[C@H](NC(=O)[C@@H](NC(=O)[C@H](C)NC(=O)CNC(=O)[C@H](C)NC(=O)[C@@H]1CCCN1C(=O)[C@H](CCCNC(=N)N)NC(=O)[C@H](C)NC(=O)[C@H](C)NC(=O)[C@@H]1CCCN1C(=O)[C@@H](N)Cc1ccccc1)[C@@H](C)O)C(=O)O ... 4

State its No. of B7 Alleles Crossbound for this molecule: CC[C@H](C)[C@H](NC(=O)[C@H](C)NC(=O)[C@@H]1CCCN1C(=O)[C@H](CC(C)C)NC(=O)[C@@H]1CCCN1C(=O)CNC(=O)[C@H](CCC(=O)O)NC(=O)[C@H](CCCNC(=N)N)NC(=O)[C@@H]1CCCN1C(=O)[C@@H](N)Cc1ccccc1)C(=O)O
3
